# EXPERIMENT_SUMMARY: Acute toxicity (LD50) on mouse upon intravenous injection
# Type: in vivo
# STATED_CONDITIONS: in vivo, intravenous injection
Structures can show the parent of a compound that is named as a salt.
VALUE_KIND: LD50 (mg/kg)
Numbers only, in mg/kg.

Recorded LD50, per entry:
[Q] Give its LD50 value. Item: CCC12CC(C(=O)OC)=C3Nc4cc5c(cc4C34CCN(CC3OC31)C42)C1C(O5)C(O)C2(CC)CC(C(=O)OC)=C3Nc4c(cc(O)c(OC)c4OC)C34CCN1C42 (stereo not shown) [III-121C]
[A] 24.3

[Q] Likewise for CC[C@]1(O)C[C@@H]2CN(CCc3c([nH]c4ccccc34)[C@@](C(=O)OC)(c3cc4c(cc3OC)N(C)[C@H]3[C@@](O)(C(=O)OC)[C@H](OC(C)=O)[C@]5(CC)C=CCN6CC[C@]43[C@@H]65)C2)C1 [vinblastine sulfate, reference compound] ?
[A] 15.2

[Q] Likewise for CC[C@]1(O)C[C@H]2CN(CCc3c([nH]c4ccccc34)[C@@](C(=O)OC)(c3cc4c(cc3OC)N(C=O)[C@H]3[C@@](O)(C(=O)OC)[C@H](OC(C)=O)[C@]5(CC)C=CCN6CC[C@]43[C@@H]65)C2)C1 [vincristine sulfate, reference compound] ?
[A] 2.5

Now turn to the next compound.
[Q] Give its LD50 value. Item: CC[C@]1(O)C[C@@H]2CN(CCc3c([nH]c4ccccc34)[C@@](C(=O)OC)(c3cc4c(cc3OC)N(C)[C@H]3[C@@](O)(C(N)=O)[C@H](O)[C@]5(CC)C=CCN6CC[C@]43[C@@H]65)C2)C1 [vindecine sulfate, reference compound]
[A] 9.1
